Experimental target: Nonstructural protein 3 (Zika virus)
Sequence (A0A024AXB9 whole entry): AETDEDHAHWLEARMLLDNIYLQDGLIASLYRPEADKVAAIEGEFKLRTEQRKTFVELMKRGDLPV
Protocol description: Functional biochemical assay to identify treatments for viral infectious disease that targets Zika NS2B-NS3 protease. Utilizing a direct enzyme activity measurement method, reading the fluorescence intensity is used to characterize the relative potency of inhibitors as IC50.
Set-up: species or system PRVABC59
Endpoint label: IC50

Exam item: Form: Entry = CCn1c(=O)c(N2C[C@@H]3[C@H](C2)[C@H]3C(=O)OC)nc2ccccc21 | System = Nonstructural protein 3 (Zika virus) | IC50 = ____
Marked response: > 99.5 µM

----------
Experimental target: Nonstructural protein 3 (Zika virus)
Protocol description: Functional biochemical assay to identify treatments for viral infectious disease that targets Zika NS2B-NS3 protease. Utilizing a direct enzyme activity measurement method, reading the fluorescence intensity is used to characterize the relative potency of inhibitors as IC50.
Parameters: species or system PRVABC59
Endpoint label: IC50 (µM)
Please give a number only; it is taken to be in µM.

Record excerpt, results attached:
NCc1cccc(NC(=O)[C@H](NS(=O)(=O)Cc2ccccc2)c2ccc(OCc3ccccc3)cc2)c1    64.5
CSc1ccc([C@H](CC(=O)Nc2cccc(CN)c2)NC(=O)OCc2ccccc2)cc1    43.7
CCCC(=O)Nc1cc(Cl)cc(C(=O)Nc2cccc(CN)c2)c1    4.37
N#Cc1ccccc1-c1ccc(S(=O)(=O)Nc2ccc(Cl)cc2C(=O)O)cc1    80
O=C(NCC1CC1)c1cc(Cl)cc(NS(=O)(=O)c2ccc(Oc3ccccc3Cl)cc2)c1    49.9

Exam item: Return reported IC50; argument: NCc1cccc(NC(=O)c2cc(Cl)cc3c2cnn3CC2CC2)c1
Marked response: 3.05

Exam item: Input CN(C)CCc1ccc(NC(=O)c2cc(Cl)cc(NC(=O)OCc3ccccc3)c2)cc1
Marked response: 44.5

Exam item: What do we get for CC(C)NC(=O)[C@H](Nc1ccc2c(c1)CN(C)C2)c1cc(Cl)cc2[nH]ncc12 ?
Marked response: 0.533

Exam item: Also O=C(Nc1ccc2c(c1)CCNCC2)c1cc(Cl)cc2[nH]ncc12 ?
Marked response: 0.37

----------
Experimental target: Nonstructural protein 3 (Zika virus)
Protocol description: Functional biochemical assay to identify treatments for viral infectious disease that targets Zika NS2B-NS3 protease. Utilizing a direct enzyme activity measurement method, reading the fluorescence intensity is used to characterize the relative potency of inhibitors as IC50.
Parameters: species or system PRVABC59
pIC50: −log10 of the molar value.
Endpoint label: pIC50

Cc1c(C(=O)Nc2cc3c(cn2)OCC3)cc(C2CC2)n1C    < 4.60
O=C(CSc1cccc(Br)c1)Nc1ccc2c(c1)CNC2    < 4.00

Exam item: Look up pIC50: O=C(O)c1cc(Cl)ccc1NS(=O)(=O)c1ccc(N[C@H]2CCOC2)nc1
Marked response: < 4.00

Exam item: Same for O=C(O)c1cc(Cl)ccc1S(=O)(=O)Nc1ccc(-c2n[nH]c3c2CCCC3)cc1
Marked response: < 4.00

Exam item: Note, next up: CCn1cc(-c2ccc3c(c2)CCNC3)nc(N2CC[C@@H](CO)C2)c1=O
Marked response: < 4.00

----------
Experimental target: Nonstructural protein 3 (Zika virus)
Protocol description: Functional biochemical assay to identify treatments for viral infectious disease that targets Zika NS2B-NS3 protease. Utilizing a direct enzyme activity measurement method, reading the fluorescence intensity is used to characterize the relative potency of inhibitors as IC50.
Parameters: species or system PRVABC59
Endpoint label: IC50 (µM)
# unit: µM | format: bare number

Here's what some known entries look like.
Cc1cc(NC(=O)OCc2ccccc2)cc(C(=O)Nc2cccc(CN)c2)c1    10.2
C#C[C@H](Nc1cccc(-c2nn[nH]n2)c1)c1cc(Cl)cc(NC(=O)OCc2ccccc2)c1    22.9

Exam item: Notebook entry, Nonstructural protein 3 (Zika virus) assay: IC50 of O=C(Nc1ccc2c(c1)CNC2)c1cc(Br)cc2c1OCO2 = ?
Marked response: 0.848

Exam item: Same for CN(C)c1ccc(/C=C/C(=O)C(=O)N2CCOCC2)cc1
Marked response: 83.2

Exam item: // query: Cn1ccc(-c2cc(CN)cc([C@@H]3C[C@H]3c3cc(Cl)cc(NC(=O)OCc4ccccc4)c3)c2)n1
Marked response: 8.05
